Test system: 947758-054-R-J2-PDC spheroid growth, percent test/control
TEST_PROTOCOL: Anticancer human tumor 947758-054-R-J2-PDC patient-derived colon adenocarcinoma cell line growth inhibition [CLK]
MEASUREMENT_PARAMETERS: second compound 3.16 µM; first compound 10 µM; stronger effect = lower value; spheroids with HUVEC and MSC
Description: A high-throughput screen of multi-cell type tumor spheroids was designed to identify active combinations of […] and targeted small molecules. Complex spheroids include a stromal component modeled by human endothelial cells (HUVEC) and fibroblasts modeled by human mesenchymal stem cells (MSCs). […] Compounds. […] If the clinical Cmax for an agent had not been determined, the highest concentration tested was 10 microM. […]
Please respond with reported viability, T/C for every item in the list.
Please reply with the bare figure in % and do not write the unit itself.

Find the recorded viability, T/C belonging to Nc1ccccc1NC(=O)c1ccc(CNC(=O)OCc2cccnc2)cc1 + CN1CCN(c2cc(C(=O)Nc3cc4cc(-c5cnn(C)c5)ccc4cn3)ccn2)CC1 and report it.
2.87

Also, O=c1[nH]cc(F)c(=O)[nH]1 + CNC(=O)c1ccc(Nc2nc(OC3CCCC3)c3c(-c4ccc5nc(C)oc5c4)c[nH]c3n2)c(OC)c1 please.
11.8

Entry C#Cc1c(F)ccc2cc(O)cc(-c3ncc4c(N5CC6CCC(C5)N6)nc(OCC56CCCN5CC(F)C6)nc4c3F)c12 (stereo not given) + CNC(=O)c1ccc(Nc2nc(OC3CCCC3)c3c(-c4ccc5nc(C)oc5c4)c[nH]c3n2)c(OC)c1 please
29.5

Cool, now C#Cc1c(F)ccc2cc(O)cc(-c3ncc4c(N5CC6CCC(C5)N6)nc(OCC56CCCN5CC(F)C6)nc4c3F)c12 (stereo not given) + CN1CCN(c2cc(C(=O)Nc3cc4cc(-c5cnn(C)c5)ccc4cn3)ccn2)CC1
0.67

Quick one: O=C(c1cc(Cc2n[nH]c(=O)c3ccccc23)ccc1F)N1CCN(C(=O)C2CC2)CC1 + CNC(=O)c1ccc(Nc2nc(OC3CCCC3)c3c(-c4ccc5nc(C)oc5c4)c[nH]c3n2)c(OC)c1
37.4

Next molecule: CC1(C)CCC(CN2CCN(c3ccc(C(=O)NS(=O)(=O)c4ccc(NCC5CCOCC5)c([N+](=O)[O-])c4)c(Oc4cnc5[nH]ccc5c4)c3)CC2)=C(c2ccc(Cl)cc2)C1 + CN1CCN(c2cc(C(=O)Nc3cc4cc(-c5cnn(C)c5)ccc4cn3)ccn2)CC1
3.63

Repeat for the following molecule: COc1cccc2c1C(=O)c1c(O)c3c(c(O)c1C2=O)CC(O)(C(=O)CO)CC3OC1CC(N)C(O)C(C)O1 (stereo not given) + CN1CCN(c2cc(C(=O)Nc3cc4cc(-c5cnn(C)c5)ccc4cn3)ccn2)CC1
7.28

Can you handle Nc1ccn(C2OC(CO)C(O)C2(F)F)c(=O)n1 (stereo not given) + CNC(=O)c1ccc(Nc2nc(OC3CCCC3)c3c(-c4ccc5nc(C)oc5c4)c[nH]c3n2)c(OC)c1 next?
4.72

Another: CC(CO)NC(=O)c1cc(-c2ccc(Cl)cc2)nn(-c2cnn(C)c2)c1=O (stereo not given) + CN1CCN(c2cc(C(=O)Nc3cc4cc(-c5cnn(C)c5)ccc4cn3)ccn2)CC1
0.31

Cool, now CC(=O)O[C@H]1C(=O)[C@@]2(C)[C@H]([C@H](OC(=O)c3ccccc3)[C@]3(O)C[C@H](OC(=O)[C@H](O)[C@@H](NC(=O)c4ccccc4)c4ccccc4)C(C)=C1C3(C)C)[C@]1(OC(C)=O)CO[C@@H]1C[C@@H]2O + CN1CCN(c2cc(C(=O)Nc3cc4cc(-c5cnn(C)c5)ccc4cn3)ccn2)CC1
0.58

---

Provide the reported viability, T/C of each item.
Test system: 947758-054-R-J2-PDC spheroid growth, percent test/control
TEST_PROTOCOL: Anticancer human tumor 947758-054-R-J2-PDC cell line growth inhibition [CLK];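 further: spheroids exposed to compounds for one week before readout; 100% = DMSO vehicle control wells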
MEASUREMENT_PARAMETERS: second compound 1 µM; first compound 10 µM; stronger effect = lower value; spheroids with HUVEC and MSC
Excerpt: A high-throughput screen of multi-cell type tumor spheroids was designed to identify active combinations of […] and targeted small molecules. Complex spheroids include a stromal component modeled by human endothelial cells (HUVEC) and fibroblasts modeled by human mesenchymal stem cells (MSCs). […] Compounds. […] If the clinical Cmax for an agent had not been determined, the highest concentration tested was 10 microM. […]

Form: Entry = COC1C=CCC(C)C(C)S(=O)(=O)NC(=O)c2ccc3c(c2)N(CC2CCC21)CC1(CCCc2cc(Cl)ccc21)CO3 (stereo not given) + CNC(=O)c1ccc(Nc2nc(OC3CCCC3)c3c(-c4ccc5nc(C)oc5c4)c[nH]c3n2)c(OC)c1 | System = 947758-054-R-J2-PDC spheroid growth, percent test/control | viability, T/C = ____
12.4%

What about this compound? CC(=O)O[C@H]1C(=O)[C@@]2(C)[C@H]([C@H](OC(=O)c3ccccc3)[C@]3(O)C[C@H](OC(=O)[C@H](O)[C@@H](NC(=O)c4ccccc4)c4ccccc4)C(C)=C1C3(C)C)[C@]1(OC(C)=O)CO[C@@H]1C[C@@H]2O + CNC(=O)c1ccc(Nc2nc(OC3CCCC3)c3c(-c4ccc5nc(C)oc5c4)c[nH]c3n2)c(OC)c1
57.6%

Next entry: CC1(C)CCC(CN2CCN(c3ccc(C(=O)NS(=O)(=O)c4ccc(NCC5CCOCC5)c([N+](=O)[O-])c4)c(Oc4cnc5[nH]ccc5c4)c3)CC2)=C(c2ccc(Cl)cc2)C1 + CN1CCN(c2cc(C(=O)Nc3cc4cc(-c5cnn(C)c5)ccc4cn3)ccn2)CC1
0.59%

// repeat for CCCS(=O)(=O)Nc1ccc(F)c(C(=O)c2c[nH]c3ncc(-c4ccc(Cl)cc4)cc23)c1F + CN1CCN(c2cc(C(=O)Nc3cc4cc(-c5cnn(C)c5)ccc4cn3)ccn2)CC1 and report
0.11%

Can you handle Nc1ccn(C2OC(CO)C(O)C2(F)F)c(=O)n1 (stereo not given) + CNC(=O)c1ccc(Nc2nc(OC3CCCC3)c3c(-c4ccc5nc(C)oc5c4)c[nH]c3n2)c(OC)c1 next?
8.82%

Entry Nc1ccccc1NC(=O)c1ccc(CNC(=O)OCc2cccnc2)cc1 + CNC(=O)c1ccc(Nc2nc(OC3CCCC3)c3c(-c4ccc5nc(C)oc5c4)c[nH]c3n2)c(OC)c1 please
1.54%

Okay, and CC(Nc1ccc2c(c1)OCCn1cc(N3C(=O)OCC3C(F)F)nc1-2)C(N)=O (stereo not given) + CNC(=O)c1ccc(Nc2nc(OC3CCCC3)c3c(-c4ccc5nc(C)oc5c4)c[nH]c3n2)c(OC)c1 ?
4.05%

And for O=C(c1cc(Cc2n[nH]c(=O)c3ccccc23)ccc1F)N1CCN(C(=O)C2CC2)CC1 + CN1CCN(c2cc(C(=O)Nc3cc4cc(-c5cnn(C)c5)ccc4cn3)ccn2)CC1 ?
0.18%

# repeat for CC1COCCN1c1cc(C2(S(C)(=N)=O)CC2)nc(-c2ccnc3[nH]ccc23)n1 (stereo not given) + CNC(=O)c1ccc(Nc2nc(OC3CCCC3)c3c(-c4ccc5nc(C)oc5c4)c[nH]c3n2)c(OC)c1
8.76%

Queued: Nc1ccn(C2OC(CO)C(O)C2(F)F)c(=O)n1 (stereo not given) + CN1CCN(c2cc(C(=O)Nc3cc4cc(-c5cnn(C)c5)ccc4cn3)ccn2)CC1
0.11%

---

System: 947758-054-R-J2-PDC spheroid growth, percent test/control
TEST_PROTOCOL: Anticancer human tumor 947758-054-R-J2-PDC cell line growth inhibition [CLK];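 further: spheroids exposed to compounds for one week before readout; 100% = DMSO vehicle control wells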
MEASUREMENT_PARAMETERS: second compound 0.0316 µM; first compound 0.316 µM; stronger effect = lower value; spheroids with HUVEC and MSC
Source text: A high-throughput screen of multi-cell type tumor spheroids was designed to identify active combinations of […] and targeted small molecules. Complex spheroids include a stromal component modeled by human endothelial cells (HUVEC) and fibroblasts modeled by human mesenchymal stem cells (MSCs). […] Compounds. […] If the clinical Cmax for an agent had not been determined, the highest concentration tested was 10 microM. […]
Assignment: determine reported viability, T/C for the given compounds.
Response body: numeric value in %, unit text excluded.

947758-054-R-J2-PDC spheroid growth, percent test/control / viability, T/C / O=c1[nH]cc(F)c(=O)[nH]1 + CNC(=O)c1ccc(Nc2nc(OC3CCCC3)c3c(-c4ccc5nc(C)oc5c4)c[nH]c3n2)c(OC)c1 : value?
84.2

Try the compound Nc1ccccc1NC(=O)c1ccc(CNC(=O)OCc2cccnc2)cc1 + CN1CCN(c2cc(C(=O)Nc3cc4cc(-c5cnn(C)c5)ccc4cn3)ccn2)CC1
153

What do we get for C#Cc1c(F)ccc2cc(O)cc(-c3ncc4c(N5CC6CCC(C5)N6)nc(OCC56CCCN5CC(F)C6)nc4c3F)c12 (configuration not stated) + CN1CCN(c2cc(C(=O)Nc3cc4cc(-c5cnn(C)c5)ccc4cn3)ccn2)CC1 ?
126

Another compound: COC1C=CCC(C)C(C)S(=O)(=O)NC(=O)c2ccc3c(c2)N(CC2CCC21)CC1(CCCc2cc(Cl)ccc21)CO3 (configuration not stated) + CNC(=O)c1ccc(Nc2nc(OC3CCCC3)c3c(-c4ccc5nc(C)oc5c4)c[nH]c3n2)c(OC)c1
90.3

Field entry: O=c1[nH]cc(F)c(=O)[nH]1 + CN1CCN(c2cc(C(=O)Nc3cc4cc(-c5cnn(C)c5)ccc4cn3)ccn2)CC1
103

Also check O=C(c1cc(Cc2n[nH]c(=O)c3ccccc23)ccc1F)N1CCN(C(=O)C2CC2)CC1 + CNC(=O)c1ccc(Nc2nc(OC3CCCC3)c3c(-c4ccc5nc(C)oc5c4)c[nH]c3n2)c(OC)c1
96.3

Note, next up: COc1cccc2c1C(=O)c1c(O)c3c(c(O)c1C2=O)CC(O)(C(=O)CO)CC3OC1CC(N)C(O)C(C)O1 (configuration not stated) + CNC(=O)c1ccc(Nc2nc(OC3CCCC3)c3c(-c4ccc5nc(C)oc5c4)c[nH]c3n2)c(OC)c1
32.6

Query CC1(C)CCC(CN2CCN(c3ccc(C(=O)NS(=O)(=O)c4ccc(NCC5CCOCC5)c([N+](=O)[O-])c4)c(Oc4cnc5[nH]ccc5c4)c3)CC2)=C(c2ccc(Cl)cc2)C1 + CN1CCN(c2cc(C(=O)Nc3cc4cc(-c5cnn(C)c5)ccc4cn3)ccn2)CC1 next
113

Same thing, different compound: COc1ccc([C@@H](O)c2cc(-c3ncnc4cc(N5CCOCC5)ccc34)c(F)cc2Cl)nn1 + CN1CCN(c2cc(C(=O)Nc3cc4cc(-c5cnn(C)c5)ccc4cn3)ccn2)CC1
157

Now try COc1cccc2c1C(=O)c1c(O)c3c(c(O)c1C2=O)CC(O)(C(=O)CO)CC3OC1CC(N)C(O)C(C)O1 (configuration not stated) + CN1CCN(c2cc(C(=O)Nc3cc4cc(-c5cnn(C)c5)ccc4cn3)ccn2)CC1 .
33.2

Moving on to the next compound: C=C(F)C(=O)N1CCN(c2nc(OCC3CCCN3C)nc3c2CCN(c2cccc4cccc(Cl)c24)C3)CC1CC#N (configuration not stated) + CN1CCN(c2cc(C(=O)Nc3cc4cc(-c5cnn(C)c5)ccc4cn3)ccn2)CC1
109

Can you handle COc1c(OCCCN2CCOCC2)ccc2c3n(c(=NC(=O)c4cnc(N)nc4)nc12)CCN3 + CNC(=O)c1ccc(Nc2nc(OC3CCCC3)c3c(-c4ccc5nc(C)oc5c4)c[nH]c3n2)c(OC)c1 next?
25.1

# iterate: CCc1c2c(nc3ccc(O)cc13)-c1cc3c(c(=O)n1C2)COC(=O)[C@]3(O)CC + CN1CCN(c2cc(C(=O)Nc3cc4cc(-c5cnn(C)c5)ccc4cn3)ccn2)CC1
6.6

Ok, now CCN1CCN(Cc2ccc(Nc3ncc(F)c(-c4cc(F)c5nc(C)n(C(C)C)c5c4)n3)nc2)CC1 + CNC(=O)c1ccc(Nc2nc(OC3CCCC3)c3c(-c4ccc5nc(C)oc5c4)c[nH]c3n2)c(OC)c1
61.5

Param item: C#Cc1c(F)ccc2cc(O)cc(-c3ncc4c(N5CC6CCC(C5)N6)nc(OCC56CCCN5CC(F)C6)nc4c3F)c12 (configuration not stated) + CNC(=O)c1ccc(Nc2nc(OC3CCCC3)c3c(-c4ccc5nc(C)oc5c4)c[nH]c3n2)c(OC)c1
79.1

Ok, now CC1COCCN1c1cc(C2(S(C)(=N)=O)CC2)nc(-c2ccnc3[nH]ccc23)n1 (configuration not stated) + CNC(=O)c1ccc(Nc2nc(OC3CCCC3)c3c(-c4ccc5nc(C)oc5c4)c[nH]c3n2)c(OC)c1
114

Do the same for COC1C=CCC(C)C(C)S(=O)(=O)NC(=O)c2ccc3c(c2)N(CC2CCC21)CC1(CCCc2cc(Cl)ccc21)CO3 (configuration not stated) + CN1CCN(c2cc(C(=O)Nc3cc4cc(-c5cnn(C)c5)ccc4cn3)ccn2)CC1 please
111
